Hello, the source for this data is PubChem BioAssay AID1159580, in case you need it.

- Assay Notes: chemical genetic growth profiling, strain panel (AID 1159580);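 further: tested at 20 µM; growth read once vehicle control cultures reached saturation at 30 °C; lower values mean less growth of the strain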
- Assay Setup: S. cerevisiae deletion strains, growth OD, locus YJL157C, strain FAR1
Hit rate of the full screen: of about 5,500 compounds, about 2,000 (36%) were called active. Another 18% or so got no clear call; they are omitted. No stated cut-off is given here; in the data, active means normalized growth mostly below about 0.91 (no sharp cut-off); inconclusive means no clear call, values can overlap the other calls; inactive means mostly above about 0.92. Some of the results follow.
Classes used: active, inactive

>>> df
                                    molecule     label
 0  Cc1csc2ncnc(N3CCN(C(=O)Nc4ccc(SC(F)(F)F)cc4)CC3)c12  inactive
 1            COC(=O)c1cc(I)c(OC(C)=O)c(I)c1  inactive
 2  O=S(=O)(Nc1cc(C(F)(F)F)cc(C(F)(F)F)c1)c1ccc(Cl)s1  inactive
 3    FC(F)(F)c1c2c(nc3cc(-c4ccco4)nn13)CCC2  inactive
 4  COC(=O)c1cccc(NS(=O)(=O)c2ccc(Cl)c(Cl)c2)c1  inactive
 5  CC1SC(c2cccnc2)N(c2ccc(F)cc2F)C1=O (stereo not drawn)  inactive
 6  COc1ccc(Oc2ccc([N+](=O)[O-])cc2C(=O)O/N=C(/N)c2ccc(C(F)(F)F)cc2)cc1  inactive
 7  COC(=O)c1cc([N+](=O)[O-])ccc1S(=O)(=O)Cc1ccc(Cl)cc1  inactive
 8            Cc1cc(N=Cc2cc(Cl)cc(Cl)c2O)no1    active
 9  Cc1csc2ncnc(N3CCN(C(=S)Nc4ccc(C(F)(F)F)cc4)CC3)c12  inactive
10  CC(C)Sc1c(Cl)cccc1NC(=O)Nc1cccc(C(F)(F)F)c1  inactive
11       O=C(/C=C/c1ccc(Cl)cc1)Nc1cccc(Cl)c1  inactive
12                  COC(=S)Nc1cc(Cl)cc(Cl)c1    active
13   CC(=O)c1ccc(Sc2ccccc2)c([N+](=O)[O-])c1  inactive
14           Cc1ccc2nc3c(nc2c1)-c1ccccc1C3=O    active
15  C=CCC1C(=O)N(S(=O)(=O)c2ccc(Cl)cc2)N=C1CCC (stereo not drawn)  inactive
16           S=C(NCc1cccs1)Nc1cc(Cl)cc(Cl)c1  inactive
17       O=C(NCc1ccc2c(c1)OCO2)c1cc2ccccc2s1    active
